Answer each item with its documented melting point.

Incoming: // returns reported melting point for input CC(C)=CCc1cc2cc(C(=O)Nc3ccc(Cl)cc3)c(=O)oc2cc1O [14c]
Outgoing: 282 to 283 °C

Incoming: // returns reported melting point for input CC(C)=CCc1cc2cc(C(=O)Nc3ccc(Br)cc3)c(=O)oc2cc1O [14d]
Outgoing: 276 to 277 °C

Incoming: // returns reported melting point for input `CC1(C)C=Cc2cc3cc(C(=O)Nc4ccccc4)c(=O)oc3cc2O1`
Outgoing: 187 to 188 °C

Incoming: // returns reported melting point for input `CC1(C)C=Cc2cc3cc(C(=O)O)c(=O)oc3cc2O1`
Outgoing: 187 to 188 °C

Incoming: // returns reported melting point for input CC(C)=CCc1cc2cc(C(=O)Nc3ccc(F)cc3)c(=O)oc2cc1O [14b]
Outgoing: 259 to 261 °C

Incoming: // returns reported melting point for input COc1ccc(NC(=O)c2cc3cc(CC=C(C)C)c(O)cc3oc2=O)cc1 [14g]
Outgoing: 259 to 261 °C

Incoming: // returns reported melting point for input CC(C)=CCc1cc2cc(C(=O)Nc3ccccc3)c(=O)oc2cc1O [14a]
Outgoing: 258 to 259 °C

Incoming: // returns reported melting point for input CC(C)=CCc1cc2cc(C(=O)Nc3ccc(C)cc3)c(=O)oc2cc1O [14f]
Outgoing: 276 to 277 °C

Incoming: // returns reported melting point for input `CC(C)=CCc1cc2cc(C(=O)O)c(=O)oc2cc1O`
Outgoing: 237 to 238 °C

Incoming: // returns reported melting point for input CC(C)=CCc1cc2cc(C(=O)Nc3cc(F)ccc3F)c(=O)oc2cc1O [14e]
Outgoing: 248 to 250 °C

Source of measurements: paper PMC8002271
